Hello, the source for this data is patent US11078170B2, in case you need it.

Test system: HBV viral production from HepAD38 cells
Test: Activity of test compounds on viral production from HepAD38 cells (viral load by qPCR of HBV core sequence in supernatant)
Assay type: cell-based
Settings: Hepatitis B virus, 120 h, 5 days incubation, HBV DNA in supernatant by qPCR, top concentration 10 μM, read-out: Viral Load EC50 Activity range
pEC50: −log10 of the molar value.
Outcome Measure: pEC50

                                   molecule                              test_system  result
0  CN1C(C(=O)Nc2ccc(F)c(Cl)c2)CC(c2ccc(-c3cn(C)cn3)s2)NS1(=O)=O (racemic)  HBV viral production from HepAD38 cells  > 6.00
1  CN1[C@H](C(=O)Nc2ccc(F)c(Br)c2)C[C@H](c2nccs2)NS1(=O)=O  HBV viral production from HepAD38 cells  > 6.00

Prompt: Item CN1C(C(=O)Nc2ccc(F)c(Br)c2)CC(c2ccc(F)cc2)NS1(=O)=O (racemic) has what recorded pEC50?
Completion: > 6.00

Prompt: Try this molecule too: CN1C(C(=O)Nc2ccc(F)c(Cl)c2)CC(c2cc(-c3ncn(C)n3)cs2)NS1(=O)=O (racemic)
Completion: > 6.00
